Just for reference, PubChem BioAssay (NCI) is where these values come from.

Tested on: CAKI-1 renal
Assay: NCI-60 one-dose screen, 48 h (100 = growth as untreated, 0 = no growth, -100 = all killed)
Conditions: 10 µM unless noted
This is part of a sample that, as a whole, favours compounds with a hit. Of some 83,000 tested, about 20% had one in any assay.
Binned growth; ranges: low: < 60%; middle: ≥ 60% and < 90%; high: ≥ 90%

Q. Just checking, what class would you give O=C(Nc1cccc(C2=NCCN2)c1)c1ccc(-c2ccc(C(=O)Nc3cccc(C4=NCCN4)c3)cc2)cc1 here?
A. high

Q. Bin? COc1ccc(NC(N)=NCCCOc2ccc(F)cc2)cc1
A. high

Q. Looking at COc1ccccc1/C(C)=N/NC(=O)CSc1nc2ccccc2c(=O)n1Cc1ccc(S(N)(=O)=O)cc1 , which class would you pick?
A. middle

Further cases:
Q. Exam item: assign O=C1C=CC(=O)N1c1cccc(Cl)c1 to the correct category.
A. middle

Q. For this compound, which bin applies? CC(C)(C)c1cc(C=O)cc(C(C)(C)C)c1O
A. high

Q. Pick a category. Item: Cc1ccc(CNc2c3ccccc3nc3cc(NC(=O)CCN4CCCC4)ccc23)cc1
A. low

Q. Each compound maps to one class by growth. Which class for COc1cc2nc(-c3ccc(C(F)(F)F)cc3)cc(OCCCN3CCCC3)c2cc1OC ?
A. low

Q. Which bin, given its growth, does COc1cc(/C=C\c2cc(/C=C\c3ccc(O)c(OC)c3)n(C(=O)COc3ccccc3)n2)ccc1O occupy?
A. low

Q. Class (by measured growth) for CCOC(=O)c1cc(C(=O)c2ccc(OC)c(OC)c2)n2c1ccc1ccccc12
A. middle

====

Tested on: SNB-75 CNS
Test: NCI-60 one-dose screen, 48 h
Details: 10 µM unless noted
This is part of a sample that, as a whole, favours compounds with a hit. Of some 83,000 tested, about 20% had one in any assay. Active and inactive are the calls of the source. Rule for the calls: active = growth percent below 10; inactive = the rest.
Use one of these outcomes when replying: YES = active, NO = inactive

Q. How was O=C(Cn1c[n+](CC(=O)c2ccc(-c3ccccc3)cc2)c2ccccc21)Nc1cccc2cccnc12 classified in this test?
A. YES

More entries:
Q. Outcome logged for CCNC(=O)Oc1ccc(/C(=C(\C)c2ccccc2)c2ccc(OCCN(CC)CC)cc2)cc1 in this assay:
A. NO

Q. Assay result, entry CCc1c2c(nc3ccc(OCc4ccc(B(O)O)cc4)cc13)-c1cc3c(c(=O)n1C2)COC(=O)[C@]3(O)CC — outcome?
A. YES

Q. Please indicate how the test categorized O=C1c2ccc3c4c(ccc(c24)C(=O)N1CCCNCc1ccccc1Cl)C(=O)N(CCCNCc1ccccc1Cl)C3=O .
A. YES

Q. Assay outcome for COc1cc2c(c(O)c1Cl)C(=O)c1c(O)cc(C[C@H](C)O)cc1[C@H]2[C@H]1c2cc(C[C@H](C)O)cc(O)c2C(=O)c2c1cc(OC)c(Cl)c2O : what was it?
A. YES

Q. Which result was noted for this compound in the test: Oc1ccc(C2c3ccccc3Oc3ccccc32)c2cccnc12
A. NO

Q. Fill in: this test's call for Nc1ccccc1NC(=O)c1ccc(-n2nc(-c3ccccc3)c3ccccc32)cc1 is ___
A. NO

Q. What did the test return for COc1ccc(/C=C/c2nc(Nc3ccc(S(=O)(=O)Nc4cc(C)on4)cc3)c3ccccc3n2)cc1 ?
A. NO
